Overview of reported T/C across a group of compounds:
Test system: L1210 leukemia ip in BDF1 mice, survival T/C
assay.info: NCI In Vivo Anticancer Drug Screen. Data for tumor model L1210 Leukemia (intraperitoneal) in B6D2F1 (BDF1) mice
condition.description: endpoint: mean survival time; dose: 400.0 mg/kg/injection; schedule: Q04DX003 (ip); vehicle: saline; higher = longer survival
Toxic doses and inconclusive results are not listed.

Record excerpt, results attached:
CC(=O)NC(C)C(C)C (stereo not given)    104 % of control
Clc1nc(Cl)nc(-c2cccn2-c2ccccc2)n1    93 % of control
CCOC(=O)C(=O)Nc1ccccc1-c1ccccc1    101 % of control
CNC(=O)NC    94 % of control
NC(=O)CC[n+]1cccc(C(=O)O)c1    94 % of control
COc1cc(C(=O)OCCCN2CCOCC2)cc(OC)c1OC    95 % of control
CC(=O)C1OC1(C)C (stereo not given)    102 % of control
CC1CC(C(C)CC(=O)O)C(=O)O1 (stereo not given)    101 % of control
Oc1cc(O)c(CN(CCCl)CCCl)cc1CN(CCCl)CCCl    90 % of control
COC(=O)c1csc(CCN)n1    97 % of control

(Q) Quick check: T/C on L1210 leukemia ip in BDF1 mice, survival T/C, item Nc1csc(N)n1 ?
(A) 103 % of control

###

System: L1210 leukemia ip in BDF1 mice, survival T/C
assay.info: NCI In Vivo Anticancer Drug Screen. Data for tumor model L1210 Leukemia (intraperitoneal) in B6D2F1 (BDF1) mice
condition.description: endpoint: mean survival time; dose: 400.0 mg/kg/injection; schedule: Q04DX003 (ip); vehicle: Klucel (hydroxypropylcellulose) (HPC); higher = longer survival
Toxic doses and inconclusive results are not listed.
observed.property: T/C

O=C(CCl)Nc1ccc2c(c1)-n1cccc1C2=O    100 % of control
CC(=O)CC(=O)Nc1ccc2ccccc2c1    92 % of control
Cc1cc(C)nc(NC(=O)Nc2cccc(C(F)(F)F)c2)c1    99 % of control
COc1cccc(C(=O)C(CCC#N)c2ccccc2)c1 (configuration not stated)    95 % of control

(Q) // T/C lookup, key: O=C(O)c1ccccc1Cl
(A) 102 % of control

(Q) Try the compound Cc1ccc(C(=O)/C(=C/c2ccccc2)c2ccccc2)cc1
(A) 96 % of control

(Q) Next: CC(OC(=O)c1ccccc1)c1ccccc1 (configuration not stated)
(A) 101 % of control

(Q) Cool, now CCC(C)C(NC(C)=O)C(=O)O (configuration not stated)
(A) 89 % of control

(Q) Again, but for NC1=C(c2ccccc2)C(=O)c2ccccc21
(A) 90 % of control

(Q) Next: CCCCCCC(C)OB(OC(C)CCCCCC)OC(C)CCCCCC (configuration not stated)
(A) 93 % of control

(Q) Also check Cc1cccc(NC(=O)Nc2ccccc2F)n1
(A) 97 % of control

(Q) Also CCOc1ccc(NC(=O)Nc2cccc3ccccc23)cc1 ?
(A) 92 % of control

(Q) Param item: CC1=CC(OC2CCCCO2)C2CC1C2(C)C (configuration not stated)
(A) 93 % of control

(Q) Same question, CCCCCC1CCC(OC(C)=O)CC1 (configuration not stated) this time
(A) 93 % of control

###

Test system: L1210 leukemia ip in BDF1 mice, survival T/C
assay.info: NCI In Vivo Anticancer Drug Screen. Data for tumor model L1210 Leukemia (intraperitoneal) in B6D2F1 (BDF1) mice
condition.description: endpoint: mean survival time; dose: 400.0 mg/kg/injection; schedule: Q01DX001 (ip); vehicle: carboxymethylcellulose (CMC); higher = longer survival
Toxic doses and inconclusive results are not listed.
observed.property: T/C

Cc1ccc(CN(C)C)c(C(O)(c2ccccc2)c2ccccc2)c1    96 % of control
CCOC(=O)P(=O)(OCC)OCC    104 % of control
CSc1ccnc2c1ncn2C1OC(CO)C(O)C1O (stereo unspecified)    96 % of control
CC(C)CCc1nc2c(c(=O)n(C)c(=O)n2C)n1C    103 % of control
O=[N+]([O-])c1ccc2c(c1)/C(=N\O)c1cc(F)ccc1-2    98 % of control

(Q) Request: T/C, test system L1210 leukemia ip in BDF1 mice, survival T/C, entry CC(=O)Oc1ccc(NC(=O)c2ccccc2)c2ccccc12
(A) 94 % of control

(Q) Lookup CC(C)CCS(=O)(=O)OCCCCOS(=O)(=O)CCC(C)C
(A) 103 % of control

(Q) Also check CC1CCc2c(O)ccc(O)c21 (stereo unspecified)
(A) 94 % of control

(Q) Follow-up entry: Fc1cc(N(CCCl)CCCl)ccc1C1N(Cc2ccc(N(CCCl)CCCl)cc2Cl)CCCN1Cc1ccc(N(CCCl)CCCl)cc1Cl
(A) 100 % of control

(Q) // same read-out, input: CCOC(=O)C1(Br)CCN(S(=O)(=O)c2ccc(C)cc2)c2ccccc2C1=O (stereo unspecified)
(A) 100 % of control

(Q) // same read-out, input: CCC(Cl)COP(=O)(OCC(Cl)CC)C(CC)CCl (stereo unspecified)
(A) 96 % of control

###

Quick reference for T/C among some compounds
Test system: L1210 leukemia ip in BDF1 mice, survival T/C
assay.info: NCI In Vivo Anticancer Drug Screen. Data for tumor model L1210 Leukemia (intraperitoneal) in B6D2F1 (BDF1) mice
condition.description: endpoint: mean survival time; dose: 75.0 mg/kg/injection; schedule: Q04DX003 (ip); vehicle: saline; higher = longer survival
Procedure: The antitumor activity of compounds was measured in mice bearing transplantable tumors. Survival or tumor size were measured and the results are expressed as the measurement made in the treated group (T) divided by the measurement made in the vehicle treated control group (C). The tumor model used in this assay is L1210 Leukemia (intraperitoneal) in B6D2F1 (BDF1) mice
Toxic doses and inconclusive results are not listed.

Clc1ccc(/C=C2\c3ccccc3-c3nc4ccccc4nc32)cc1    91 % of control
CCCCCCCC/C=C\CCCCCCCC(=O)NCCCOCCOCCOCC    94 % of control

(Q) # input compound: Nc1csc(N)n1 ; wanted: its T/C
(A) 107 % of control

(Q) What would you report for CCOC(=O)C(CC1CCCCC1)(NC(C)=O)C(=O)OCC ?
(A) 96 % of control

###

Below, each entry is listed alongside its reported T/C.
System: L1210 leukemia ip in BDF1 mice, survival T/C
assay.info: NCI In Vivo Anticancer Drug Screen. Data for tumor model L1210 Leukemia (intraperitoneal) in B6D2F1 (BDF1) mice
condition.description: endpoint: mean survival time; dose: 50.0 mg/kg/injection; schedule: Q01DX009 (ip); vehicle: saline with Tween-80; higher = longer survival
Toxic doses and inconclusive results are not listed.

Consider the worked cases shown below.
O=C(CNC(=O)NCc1ccccc1)NNC(=O)Nc1cccc(C(F)(F)F)c1    102 % of control
N#CC(C#N)=c1ccc(=C(C#N)C#N)cc1    89 % of control
C=C1N(C)c2ccc(Cl)cc2C1(C)C    102 % of control
O=C(CNC(=O)Nc1cccc(Cl)c1)N/N=C/c1cccc([N+](=O)[O-])c1    98 % of control
CCn1c(COc2cc(C)cc(C)c2)c(COC(=O)c2cccc(Cl)c2)c2ccccc21    96 % of control

(Q) Could you share which T/C value was measured for Nc1ccc(OCc2ccccc2)cc1 ?
(A) 96 % of control

(Q) // next record COc1ccc(C(C)CO)cc1 (stereo not drawn)
(A) 102 % of control

(Q) // repeat for C=CCC(CO)(c1ccccc1)c1ccccc1 and report
(A) 97 % of control

(Q) Also c1ccc(-c2ccccc2NC2=NCCO2)cc1 ?
(A) 94 % of control

(Q) Cool, now O=C1CSc2ccccc2N1
(A) 102 % of control

(Q) Here is the next molecule: O=C(COc1ccccc1)N/N=C/c1cccc([N+](=O)[O-])c1
(A) 86 % of control

(Q) Same question for COc1cc([N+](=O)[O-])ccc1S(=O)(=O)Cl please.
(A) 91 % of control

(Q) Same again, this time with CCOC(C#CC1CCCC1)OCC
(A) 95 % of control

(Q) Try the molecule CCC(CN(C)C)C(=O)c1ccccc1 (stereo not drawn)
(A) 96 % of control

(Q) Next record, please: Cc1cc(Cl)ccc1NC(=O)COc1ccc(Cl)cc1Cl
(A) 87 % of control

###

Listed below: T/C values for each entry.
Tested on: L1210 leukemia ip in BDF1 mice, survival T/C
assay.info: NCI In Vivo Anticancer Drug Screen. Data for tumor model L1210 Leukemia (intraperitoneal) in B6D2F1 (BDF1) mice
condition.description: endpoint: mean survival time; dose: 200.0 mg/kg/injection; schedule: Q01DX009 (ip); vehicle: other; higher = longer survival
Inconclusive results and toxic doses are left out.

CCCCOC(=O)c1ccc(OC(=O)Nc2ccc([N+](=O)[O-])cc2OC)cc1    102 % of control
O=C(NC/C=C/Br)NC1CCCc2ccccc21 (centres undefined)    110 % of control
O=[N+]([O-])c1ccc(N=C(Nc2ccc([N+](=O)[O-])cc2)c2ccccc2)cc1    101 % of control

Consider the additional compound presented here.
(Q) Value lookup for T/C; key = CSc1ccc(NC(=O)Nc2cc(C)ccc2N=Nc2ccc(C)cc2)cc1
(A) 102 % of control
